Reported pIC50 values for a set of molecules
target: human V1a receptor (Homo sapiens, UniProt P37288); construct: host or cells: CHO cells; experiment: Human vasopressin V1a receptor binding assay; conditions: hV1a CHO cell line, competition with 1 nM 3H-AVP; read-out: V1a Binding Affinity IC50
Sequence (P37288 whole entry): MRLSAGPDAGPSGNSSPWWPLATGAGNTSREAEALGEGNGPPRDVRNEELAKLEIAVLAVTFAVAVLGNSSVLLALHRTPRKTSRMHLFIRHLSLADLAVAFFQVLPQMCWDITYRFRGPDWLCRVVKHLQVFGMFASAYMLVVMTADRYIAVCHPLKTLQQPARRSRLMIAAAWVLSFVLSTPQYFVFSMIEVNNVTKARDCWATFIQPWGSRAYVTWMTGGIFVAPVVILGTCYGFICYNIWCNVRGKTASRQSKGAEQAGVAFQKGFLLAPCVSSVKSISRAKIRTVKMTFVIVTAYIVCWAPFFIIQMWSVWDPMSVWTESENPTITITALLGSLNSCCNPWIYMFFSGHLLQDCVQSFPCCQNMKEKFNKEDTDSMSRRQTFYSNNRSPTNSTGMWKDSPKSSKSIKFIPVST
The value called pIC50 is obtained by taking minus log10 of the concentration in mol/L.

molecule: O=C(NCc1cc(F)cc(C(F)(F)F)c1)C(CCC(=O)N1CCN(C2CCCCC2)CC1)N1C(=O)C(N2C(=O)OCC2c2ccccc2)C1C=Cc1ccccc1 (centres unmarked) [Example 179]
pIC50: 9.09
//
molecule: O=C(NC1CCCc2ccccc21)C(CCC(=O)N1CCN(C2CCCCC2)CC1)N1C(=O)C(N2C(=O)OCC2c2ccccc2)C1C=Cc1cccc(F)c1 (centres unmarked) [Example 245]
pIC50: 8.96

Now for another entry.
Recorded result, O=C(NCc1cc(Cl)cc(Cl)c1)C(CCC(=O)N1CCN(C2CCCCC2)CC1)N1C(=O)C(N2C(=O)OCC2c2ccccc2)C1C=Cc1ccccc1 (centres unmarked) [Example 174] , pIC50: 8.84
